# targetOfAssay: human α2β1 integrin on human platelets (human, UniProt P17301 30-1181; P05556 21-798)
# Sequence (P17301 30-1181 limits assumed, chain 1 of 2): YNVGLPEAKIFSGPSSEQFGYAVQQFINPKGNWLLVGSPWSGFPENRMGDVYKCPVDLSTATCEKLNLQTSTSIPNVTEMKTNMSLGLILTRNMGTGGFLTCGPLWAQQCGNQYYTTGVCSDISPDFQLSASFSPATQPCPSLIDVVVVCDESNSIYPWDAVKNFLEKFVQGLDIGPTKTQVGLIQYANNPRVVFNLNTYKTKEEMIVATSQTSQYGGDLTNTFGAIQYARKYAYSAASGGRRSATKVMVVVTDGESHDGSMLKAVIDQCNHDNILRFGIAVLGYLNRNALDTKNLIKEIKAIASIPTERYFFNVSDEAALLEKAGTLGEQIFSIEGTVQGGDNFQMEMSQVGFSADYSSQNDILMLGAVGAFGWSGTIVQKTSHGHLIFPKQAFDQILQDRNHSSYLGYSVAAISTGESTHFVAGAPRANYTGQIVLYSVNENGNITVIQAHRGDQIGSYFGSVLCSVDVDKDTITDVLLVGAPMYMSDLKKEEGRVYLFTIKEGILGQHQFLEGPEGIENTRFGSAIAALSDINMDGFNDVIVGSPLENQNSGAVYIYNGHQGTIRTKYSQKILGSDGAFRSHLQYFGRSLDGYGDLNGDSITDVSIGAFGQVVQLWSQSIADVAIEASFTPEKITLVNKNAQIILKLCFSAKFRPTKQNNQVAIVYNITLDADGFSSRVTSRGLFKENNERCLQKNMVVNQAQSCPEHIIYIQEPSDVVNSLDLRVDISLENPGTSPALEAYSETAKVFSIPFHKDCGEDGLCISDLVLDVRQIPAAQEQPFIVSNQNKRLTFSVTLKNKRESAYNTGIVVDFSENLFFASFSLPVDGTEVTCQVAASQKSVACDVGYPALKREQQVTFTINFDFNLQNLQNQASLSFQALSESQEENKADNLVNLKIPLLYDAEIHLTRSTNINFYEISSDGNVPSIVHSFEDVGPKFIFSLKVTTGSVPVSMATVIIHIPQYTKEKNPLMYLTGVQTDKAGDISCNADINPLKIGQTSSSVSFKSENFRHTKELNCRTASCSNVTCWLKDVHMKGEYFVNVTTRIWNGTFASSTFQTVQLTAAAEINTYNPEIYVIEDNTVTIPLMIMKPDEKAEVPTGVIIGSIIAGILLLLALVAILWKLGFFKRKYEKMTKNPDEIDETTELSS
# Sequence (P05556 21-798 limits assumed, chain 2 of 2): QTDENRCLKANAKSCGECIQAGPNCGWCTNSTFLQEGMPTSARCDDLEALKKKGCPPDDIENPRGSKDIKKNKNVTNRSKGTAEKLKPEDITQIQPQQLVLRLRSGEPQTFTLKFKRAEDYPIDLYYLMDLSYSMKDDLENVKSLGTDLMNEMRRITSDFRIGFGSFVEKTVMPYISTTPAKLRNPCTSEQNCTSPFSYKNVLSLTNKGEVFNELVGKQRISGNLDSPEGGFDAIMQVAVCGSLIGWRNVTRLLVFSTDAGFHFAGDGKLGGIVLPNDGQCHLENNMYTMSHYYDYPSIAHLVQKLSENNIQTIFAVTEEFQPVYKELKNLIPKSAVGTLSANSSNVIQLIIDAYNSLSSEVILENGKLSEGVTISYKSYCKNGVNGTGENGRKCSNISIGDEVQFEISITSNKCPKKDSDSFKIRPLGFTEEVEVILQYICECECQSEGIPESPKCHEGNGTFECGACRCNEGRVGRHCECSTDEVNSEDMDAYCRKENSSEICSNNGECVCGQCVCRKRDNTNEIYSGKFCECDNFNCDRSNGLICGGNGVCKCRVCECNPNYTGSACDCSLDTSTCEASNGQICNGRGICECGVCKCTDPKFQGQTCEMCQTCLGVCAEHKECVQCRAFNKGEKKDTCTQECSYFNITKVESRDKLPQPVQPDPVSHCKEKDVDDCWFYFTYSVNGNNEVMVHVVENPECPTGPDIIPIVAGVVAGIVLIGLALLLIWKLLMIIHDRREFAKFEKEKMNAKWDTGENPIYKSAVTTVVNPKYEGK
# experimentalDetails: cell-based or functional assay
This listing pairs binders with measured Inhibition of binding of washed platelets to collagen, IC50.
Please respond with the number in µg/mL and leave the unit unwritten.

Field: example entries. Status: answers known.
TMC2206, humanized hIgG4 anti-alpha 2 integrin antibody (comparator) (antibody, V domains shown) VH: QVQLQESGPGLVKPSETLSLTCTVSGFSLTNYGIHWIRQPPGKGLEWLGVIWARGFTNYNSALMSRLTISKDNSKNQVSLKLSSVTAADTAVYYCARANDGVYYAMDYWGQGTLVTVSS VL: DFVMTQSPAFLSVTPGEKVTITCSAQSSVNYIHWYQQKPDQAPKKLIYDTSKLASGVPSRFSGSGSGTDYTFTISSLEAEDAATYYCQQWTTNPLTFGQGTKVEIKR :: 0.023
humanized anti-α2-integrin mAb LC2/HC2 (antibody, IgG4, V domains shown) VH: QVQLHQPGAELVKPGAPVKLSCKASGYTFTSYWMNWVKQRPGQGLEWIGRIDPSESETHYNQKFKDRATLTVDKSSSTAYIQLSSLTSEDSAVYYCAKVGRGYFDYWGQGTTLTVVS VL: NIVLTQSPSSLAVSVGQRATISCRASESVESYGQSFIYWYQQKPGKAPKLLIYLASNLASGVPARFSGSGSRTDFTLTIDPVQADDAATYYCQQNNEDPYTFGGGTKLEIK :: 0.092

Next binder, Inhibition of binding of washed platelets to collagen, IC50 to be filled in.
Input line: Give the reported value of Inhibition of binding of washed platelets to collagen, IC50 for this record: humanized anti-α2-integrin mAb LC3/HC3 (antibody, IgG4, V domains shown) VH: QVQLHQPGAELVKPGASVKLSCKASGYTFTSYWMNWVKQRPGRGLEWIGRIDPSDSETHYNQKFKDKATLTVDKSSSTAYIQLSSLTSEDSAVYYCAKVGRGYFDYWGQGTTLTVVS VL: NIVLTQSPSSLSVSVGQRATISCRASESVESYGNSFIYWYQQKPGQAPKLLIYLASNLASGVPARFSGSGSRTDFTLTIDPVQAEDAATYYCQQNNEDPYTFGGGTKLEIK
Output line: 0.012
